- MEASURED TARGET: T1, human PD-1 ECD/Fc fusion protein (human)
- T1 construct: also called huPD-1/Fc; HuPD-1 ECD/Fc
- T1 sequence (chain, as listed by the source limits assumed): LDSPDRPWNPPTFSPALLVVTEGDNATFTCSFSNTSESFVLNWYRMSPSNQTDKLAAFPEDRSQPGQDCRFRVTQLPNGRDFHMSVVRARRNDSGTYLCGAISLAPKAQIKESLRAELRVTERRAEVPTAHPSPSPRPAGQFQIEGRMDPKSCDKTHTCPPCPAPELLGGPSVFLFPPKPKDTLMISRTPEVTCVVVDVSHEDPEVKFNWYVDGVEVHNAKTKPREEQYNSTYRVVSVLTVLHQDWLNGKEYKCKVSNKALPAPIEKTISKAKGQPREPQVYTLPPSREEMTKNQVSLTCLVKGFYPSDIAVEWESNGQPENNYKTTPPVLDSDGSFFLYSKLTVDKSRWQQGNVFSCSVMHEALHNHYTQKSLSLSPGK
- PROTOCOL SUMMARY: BLI Octet, immobilized huPD-1-Fc, Ab analyte
MEASUREMENT NAME: kon (M⁻¹ s⁻¹)
Number only, in M⁻¹ s⁻¹; omit the unit.

response.value for mAb719c (antibody, V domains shown) VH: EVKLVESGGGLVKPGGSLKLSCTASGFSFSSHLMSWVRQTPEKRLEWVAAISGGGADTYYPDSVKGRFTISRDNAKNTLYLQMRSLRSEDTALYYCTRQILAFDSWGQGTTLTVSS VL: DIQMNQSPSSLSVSLGDTITITCHASQNIYVWLNWYQQKPGNIPKLLIYKASNLHTGVPSRFSGGGSGTGFTLTISSLQPEDIATYYCQQGQSYPWTFGGGTKLEIK (field: kon) = 97400

Reference source for all entries: patent US20210188980A1
